Protocol description: qHTS for differential inhibitors of proliferation of Plasmodium falciparum line W2 (AID 1883);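 also: parasites grown with compound for 72 h before lysis and staining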
Experimental parameters: Plasmodium falciparum W2 proliferation inhibition; series mostly up to 28.7 µM
Inconclusive results are not listed. The source made the active and inactive calls. Calls follow the shape of the dose curve; as a rule, active = well fitted curve in the direction sought with a large enough effect; inconclusive = small, poorly fitted or top-dose-only effect, or another doubt; inactive = no such curve, though single readings can be large or run the other way.
Outcomes: yes = active, no = inactive

{"Compound": "FC(F)(F)c1cc(CO[C@H]2CCCN[C@H]2c2ccccc2)cc(C(F)(F)F)c1", "Qualitative label": "yes"}
{"Compound": "COc1cc2c(cc1C(F)(F)F)N(C(=O)Nc1cc(F)cc(-c3cccnc3)c1)CC2", "Qualitative label": "yes"}
{"Compound": "O=S(=O)(NCCNC/C=C/c1ccc(Br)cc1)c1cccc2cnccc12", "Qualitative label": "yes"}
{"Compound": "Cc1ccc(OCC(O)C(C)NC(C)C)c2c1CCC2 (stereo unspecified)", "Qualitative label": "yes"}
{"Compound": "CCCCCCCCCCCCC/C=C/[C@@H](O)[C@@H](N)CO", "Qualitative label": "no"}
{"Compound": "O=C(OCCN1CCCCC1)c1c[nH]c2ccccc12", "Qualitative label": "yes"}
{"Compound": "O=C(O)c1cc(=O)c2ccc(Cl)cc2[nH]1", "Qualitative label": "no"}
{"Compound": "NCCNS(=O)(=O)c1cccc2cnccc12", "Qualitative label": "yes"}
{"Compound": "N#C/C(=C\\c1ccc(O)c(O)c1)C(=O)Nc1ccccc1", "Qualitative label": "yes"}
{"Compound": "CN(C)CCCCSC(=N)N", "Qualitative label": "no"}
{"Compound": "CCCn1c(=O)c2[nH]c(-c3ccc(OCC(=O)Nc4ccc(C#N)cc4)cc3)nc2n(CCC)c1=O", "Qualitative label": "no"}

====

Tested on: Zika virus NS2B-NS3 protease
Protocol description: Primary screen GU AMC qHTS for Zika virus inhibitors (AID 1347154);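 also: 0% = no-inhibitor control and -100% = no-enzyme control; nearly all actives have a fitted effect of over 70% in size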
Experimental parameters: Zika NS2B-NS3 unlinked protease, AMC fluorogenic substrate; series mostly up to 54.1 µM
Results filed as inconclusive are left out. The source made the active and inactive calls. The call rests on the fitted dose curve; in most records, active means well fitted inhibition curve with a large enough effect; inconclusive means small, poorly fitted or top-dose-only effect; inactive means flat fitted curve, though single readings scatter.

{"Smiles structure": "CCCCC/C=C\\C/C=C\\C/C=C\\C=C\\[C@@H](O)CCCC(=O)O", "activity change, negative = inhibition": "0.663% [at 0.59 µM] (inactive)"}
{"Smiles structure": "CCCCCCCC/C=C\\C/C=C\\C/C=C\\CCCC(=O)NCCO", "activity change, negative = inhibition": "9.89% [at 6.83 µM] (inactive)"}
{"Smiles structure": "CC[C@]1(c2ncc[nH]2)Cc2ccccc2O1", "activity change, negative = inhibition": "inactive"}
{"Smiles structure": "COc1cc(/C=C(\\C#N)C(N)=O)cc(CSc2nc3ccccc3s2)c1O", "activity change, negative = inhibition": "inactive"}
{"Smiles structure": "COc1cc2ncnc(Nc3ccc(Cl)cc3F)c2cc1OC", "activity change, negative = inhibition": "inactive"}
{"Smiles structure": "CC(=O)N(OCc1ccccc1)[C@@H]1c2cc(C#N)ccc2OC(C)(C)[C@H]1O", "activity change, negative = inhibition": "inactive"}
{"Smiles structure": "C[N+]1(C)CCc2cc3c(cc2[C@@H]1[C@@H]1C(=O)Oc2c1ccc1c2OCO1)OCO3", "activity change, negative = inhibition": "inactive"}
{"Smiles structure": "N=C(N)S/C=C\\C(=O)O", "activity change, negative = inhibition": "inactive"}
{"Smiles structure": "CC(C)C[C@H](NC(=O)[C@H](Cc1ccccc1)NC(=O)CNC(=O)CNC(=O)[C@@H](N)Cc1ccc(O)cc1)C(=O)N[C@@H](CCCN=C(N)N)C(=O)N[C@@H](CCCN=C(N)N)C(=O)N[C@@H](CCC(N)=O)C(=O)N[C@@H](Cc1ccccc1)C(=O)N[C@@H](CCCCN)C(=O)N[C@H](C(=O)N[C@H](C(=O)N[C@H](C(=O)O)[C@@H](C)O)C(C)C)C(C)C", "activity change, negative = inhibition": "3.02% [at 6.83 µM] (inactive)"}
{"Smiles structure": "CN(C)CCCSc1ccccc1NC(=O)/C=C\\c1ccccc1", "activity change, negative = inhibition": "inactive"}
{"Smiles structure": "CC1(C)C(=O)NC2=C1C(=O)C(=O)c1ccccc12", "activity change, negative = inhibition": "inactive"}
{"Smiles structure": "N#C/C(=C\\c1ccc(O)c(O)c1)C(N)=O", "activity change, negative = inhibition": "inactive"}
{"Smiles structure": "CCC(=O)N[C@@H]1CCc2cccc(OC)c2C1", "activity change, negative = inhibition": "inactive"}
{"Smiles structure": "N[C@H](Cc1ccccc1)C(=O)O", "activity change, negative = inhibition": "inactive"}
{"Smiles structure": "c1cc2c3c(c1)c1c(n3CCNC2)CCCC1", "activity change, negative = inhibition": "inactive"}
{"Smiles structure": "CC1(C)CO[C@H](CC(=O)O)CN1", "activity change, negative = inhibition": "inactive"}
{"Smiles structure": "Cc1cc(F)c(Nc2ncnc3cc(OCc4ccccc4)ccc23)cc1O", "activity change, negative = inhibition": "inactive"}
{"Smiles structure": "CC[C@H](C)C(=O)O[C@H]1CCC=C2C=C[C@H](C)[C@H](CC[C@@H]3C[C@H](O)CC(=O)O3)[C@H]21", "activity change, negative = inhibition": "inactive"}
{"Smiles structure": "Nc1nc(NCCc2ccc(O)cc2)nc2nc(-c3ccco3)nn12", "activity change, negative = inhibition": "inactive"}
{"Smiles structure": "CNC(=O)[C@H]1O[C@H](n2cnc3c(NCc4cccc(I)c4)nc(Cl)nc32)[C@@H](O)[C@@H]1O", "activity change, negative = inhibition": "inactive"}

====

Assay system: Cytochrome P450 3A4 (Homo sapiens) (UniProt P08684)
Sequence (P08684 whole entry, looked up): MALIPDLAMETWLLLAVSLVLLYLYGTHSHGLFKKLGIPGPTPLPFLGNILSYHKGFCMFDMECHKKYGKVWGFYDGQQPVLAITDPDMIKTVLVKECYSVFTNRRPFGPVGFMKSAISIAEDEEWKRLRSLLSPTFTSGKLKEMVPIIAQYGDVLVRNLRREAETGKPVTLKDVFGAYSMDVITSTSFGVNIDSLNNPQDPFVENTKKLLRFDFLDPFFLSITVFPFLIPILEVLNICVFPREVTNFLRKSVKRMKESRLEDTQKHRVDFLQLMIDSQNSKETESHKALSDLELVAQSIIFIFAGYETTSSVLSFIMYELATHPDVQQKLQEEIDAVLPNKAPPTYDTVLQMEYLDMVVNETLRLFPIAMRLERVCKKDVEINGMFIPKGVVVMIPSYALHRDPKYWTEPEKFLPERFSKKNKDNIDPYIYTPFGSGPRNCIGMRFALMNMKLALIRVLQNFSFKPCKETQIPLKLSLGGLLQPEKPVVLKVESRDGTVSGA
Protocol description: qHTS Assay for Inhibitors and Substrates of Cytochrome P450 3A4 (AID 884); also: nearly all actives have a fitted effect of over 50% in size; also: potency is read from the fitted curve at half-maximal effect
Experimental parameters: recombinant CYP3A4, Luciferin-PPXE luminescence; series mostly up to 57.1 µM
Records with an inconclusive call do not appear. The source made the active and inactive calls. Calls come from the whole dose curve; as a rule, active = well fitted inhibition curve with a large enough effect; inconclusive = small, poorly fitted or top-dose-only effect; inactive = no such curve, though single readings can be large or run the other way.
Outcome measure: Potency

{"Compound": "CCCCCCCCCCCCC/C=C\\[C@@H](O)[C@@H](N)CO", "Value measured": "inactive"}
{"Compound": "O[C@@H](c1ccccc1)C1CCN(CCc2ccccc2)CC1", "Value measured": "inactive"}
{"Compound": "C=C[C@H](N)CCC(=O)O", "Value measured": "inactive"}
{"Compound": "C[C@@H](CCCCC(=O)Nc1ccc(C(F)(F)F)cc1)NCCc1cnc[nH]1", "Value measured": "5.01 µM (active)"}
{"Compound": "Fc1ccc(-c2nc3n(c2-c2ccncc2)CCS3)cc1", "Value measured": "15.8 µM (active)"}
{"Compound": "COc1ccc(-c2cnnc(CCCn3ccnc3-c3ccccc3)n2)cc1", "Value measured": "6.31 µM (active)"}
{"Compound": "S=C(S)O[C@@H]1C[C@@H]2C[C@H]1[C@@H]1CCC[C@H]21", "Value measured": "3.98 µM (active)"}
{"Compound": "COc1cc(O)c2c(=O)cc(-c3ccc(OC)c(-c4c(O)cc(O)c5c(=O)cc(-c6ccc(O)cc6)oc45)c3)oc2c1", "Value measured": "inactive"}
{"Compound": "CC#CCOC(=O)c1c(C)nc2sc3c(c2c1N)CC[C@@H](O)C3", "Value measured": "3.16 µM (active)"}
{"Compound": "O=C1c2ccccc2C(Cc2ccnc(F)c2)(Cc2ccnc(F)c2)c2ccccc21", "Value measured": "15.8 µM (active)"}
{"Compound": "O=Nc1c(-c2c(O)[nH]c3ccccc23)[nH]c2ccccc12", "Value measured": "7.94 µM (active)"}
{"Compound": "O=C(O)c1c(Sc2ccccc2)c2cc(Cl)ccc2n1Cc1ccc(Cl)cc1", "Value measured": "inactive"}
{"Compound": "O=C1C=CC(=O)C2=C1C1c3ccccc3C2c2ccccc21", "Value measured": "39.8 µM (active)"}
{"Compound": "O=C(O)Cc1cc(I)c(Oc2cc(I)c(O)c(I)c2)c(I)c1", "Value measured": "inactive"}
{"Compound": "N[C@H](Cc1cnc[nH]1)C(=O)O", "Value measured": "inactive"}
{"Compound": "COc1cc(/C=C(\\C#N)C(N)=O)cc(CSc2nc3ccccc3s2)c1O", "Value measured": "3.98 µM (active)"}
{"Compound": "CC(C)=CCCC1(C)C=Cc2c(O)c3c(c(CC=C(C)C)c2O1)OC12C(=CCCC1C(C)(C)O[C@@]2(C/C=C(\\C)C(=O)O)C(=O)O)C3=O (stereo partly specified)", "Value measured": "inactive"}
{"Compound": "NCCCCCCNS(=O)(=O)c1cccc2ccccc12", "Value measured": "6.31 µM (active)"}
{"Compound": "CC(=O)N(OCc1ccccc1)[C@@H]1c2cc(C#N)ccc2OC(C)(C)[C@H]1O", "Value measured": "15.8 µM (active)"}
{"Compound": "C=C[C@@]1(C)CC(=O)[C@@]2(O)[C@@]3(C)[C@@H](O)CCC(C)(C)[C@@H]3[C@H](OC(=O)CCN(C)C)[C@H](OC(C)=O)[C@@]2(C)O1", "Value measured": "2.51 µM (active)"}
{"Compound": "COc1ccc(OC)c2c(=S)c3ccccc3[nH]c12", "Value measured": "7.94 µM (active)"}

The measured values listed here are drawn from PubChem BioAssay (NCATS).
